- Target Or Test System: cIAP2 (Homo sapiens)
- Sequence (Q13489 whole entry): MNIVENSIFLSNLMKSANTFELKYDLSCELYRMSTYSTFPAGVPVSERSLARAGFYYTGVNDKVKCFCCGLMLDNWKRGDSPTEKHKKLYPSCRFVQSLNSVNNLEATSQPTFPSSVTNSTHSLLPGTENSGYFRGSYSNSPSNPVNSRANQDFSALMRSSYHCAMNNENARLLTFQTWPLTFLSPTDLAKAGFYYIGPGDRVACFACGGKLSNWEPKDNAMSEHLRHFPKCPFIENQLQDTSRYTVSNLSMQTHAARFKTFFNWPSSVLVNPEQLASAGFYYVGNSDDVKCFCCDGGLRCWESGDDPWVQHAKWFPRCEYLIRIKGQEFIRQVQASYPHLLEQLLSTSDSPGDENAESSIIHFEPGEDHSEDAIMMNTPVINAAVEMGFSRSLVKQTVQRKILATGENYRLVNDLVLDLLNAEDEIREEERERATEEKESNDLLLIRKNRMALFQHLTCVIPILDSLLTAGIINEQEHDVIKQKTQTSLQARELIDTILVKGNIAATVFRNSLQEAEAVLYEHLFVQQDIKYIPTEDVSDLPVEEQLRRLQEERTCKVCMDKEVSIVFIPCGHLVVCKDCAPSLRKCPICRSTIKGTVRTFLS
- Experiment Description: Immunoblotting (western blot) quantification of cIAP2 levels in MM.1S cells
- Condition Info: MM1.S, 16 h, read-out: %remaining protein cIAP2, MM.1S cells, 16 h treatment at 0.1 μM, normalized to loading control and DMSO
Experimental Endpoint: remaining activity at 0.1 µM (%)
// note: answer is a bare numeric in %

- Compound: "CN[C@@H](C)C(=O)N[C@H](C(=O)N1C[C@@H](Oc2cccc(OCCCCCCCC(=O)N[C@H](C(=O)N3C[C@H](O)C[C@H]3C(=O)NCc3ccc(-c4scnc4C)cc3)C(C)(C)C)c2)C[C@H]1C(=O)N[C@@H]1CCCc2ccccc21)C1CCCCC1 [PROTAC 2]"
  Target Or Test System: "cIAP2 (Homo sapiens)"
  remaining activity at 0.1 µM, %: 23
- Compound: "CN[C@@H](C)C(=O)N[C@H](C(=O)N1C[C@@H](Oc2cccc(OCCCCOCCCC(=O)N[C@H](C(=O)N3C[C@H](O)C[C@H]3C(=O)NCc3ccc(-c4scnc4C)cc3)C(C)(C)C)c2)C[C@H]1C(=O)N[C@@H]1CCCc2ccccc21)C1CCCCC1 [PROTAC 3]"
  Target Or Test System: "cIAP2 (Homo sapiens)"
  remaining activity at 0.1 µM, %: 30
- Compound: "CN[C@@H](C)C(=O)N[C@H](C(=O)N1C[C@@H](Oc2cccc(OCCOCCOCCOCC(=O)N[C@H](C(=O)N3C[C@H](O)C[C@H]3C(=O)NCc3ccc(-c4scnc4C)cc3)C(C)(C)C)c2)C[C@H]1C(=O)N[C@@H]1CCCc2ccccc21)C1CCCCC1 [PROTAC 5]"
  Target Or Test System: "cIAP2 (Homo sapiens)"
  remaining activity at 0.1 µM, %: 37
- Compound: "Cc1ncsc1-c1ccc([C@H](C)NC(=O)[C@@H]2C[C@@H](O)CN2C(=O)[C@@H](NC(=O)CCCCOc2cccc(O[C@H]3C[C@@H](C(=O)N[C@@H]4CCCc5ccccc54)N(C(=O)[C@@H](NC(=O)[C@H](C)N(C)C(=O)OC(C)(C)C)C4CCCCC4)C3)c2)C(C)(C)C)cc1 [PROTAC 10d]"
  Target Or Test System: "cIAP2 (Homo sapiens)"
  remaining activity at 0.1 µM, %: 88
- Compound: "CN[C@@H](C)C(=O)N[C@H](C(=O)N1C[C@@H](Oc2cccc(OCCCCCNc3cccc4c3C(=O)N(C3CCC(=O)NC3=O)C4=O)c2)C[C@H]1C(=O)N[C@@H]1CCCc2ccccc21)C1CCCCC1 (some centres unmarked) [PROTAC 20]"
  Target Or Test System: "cIAP2 (Homo sapiens)"
  remaining activity at 0.1 µM, %: 34

query: Data request, read-out remaining activity at 0.1 µM, for Nc1cccc2c1C(=O)N(C1CCC(=O)NC1=O)C2=O (centres unmarked) [POM, pomalidomide, reference compound]
result: 95

query: Data request, read-out remaining activity at 0.1 µM, for Cc1ncsc1-c1ccc([C@H](C)NC(=O)[C@@H]2C[C@@H](O)CN2C(=O)[C@@H](NC(=O)CCCCOc2cccc(O[C@H]3C[C@@H](C(=O)N[C@@H]4CCCc5ccccc54)N(C(=O)[C@@H](NC(=O)[C@H](C)N(C)C)C4CCCCC4)C3)c2)C(C)(C)C)cc1 [PROTAC 10b]
result: 27

query: Data request, read-out remaining activity at 0.1 µM, for CN[C@@H](C)C(=O)N[C@H](C(=O)N1C[C@@H](Oc2cccc(OCCCCC(=O)N[C@H](C(=O)N3C[C@H](O)C[C@H]3C(=O)NCc3ccc(-c4scnc4C)cc3)C(C)(C)C)c2)C[C@H]1C(=O)N[C@@H]1CCCc2ccccc21)C1CCCCC1 [PROTAC 1]
result: 33
